// data source = patent US20240300991A1

For each entry below, report its IC50 value.
- Test system: A549 (lung cancer cells)
- assayDetails: Inhibitory activity against cancer cells (sulforhodamine B staining)
- Format: cell-based
- reportedConditions: 3 days, SRB staining

Query: # IC50 lookup, item CC(C)(C)C#Cc1cn([C@@H]2S[C@H](CO)[C@@H](O)[C@H]2O)c2ncnc(N)c12
Response: > 50 µM

Query: # IC50 lookup, item CCC#Cc1cn([C@@H]2S[C@H](CO)[C@@H](O)[C@H]2O)c2ncnc(N)c12
Response: > 50 µM

Query: # IC50 lookup, item Nc1ncnc2c1c(-c1cccs1)cn2[C@@H]1SC[C@@H](O)[C@H]1O [Compound 13c]
Response: 2.91 µM
